# tested on: Transcriptional activator protein LasR (Pseudomonas aeruginosa (strain ATCC 15692 / PAO1 / 1C / PRS 101 / LMG12228))
# Sequence (whole entry): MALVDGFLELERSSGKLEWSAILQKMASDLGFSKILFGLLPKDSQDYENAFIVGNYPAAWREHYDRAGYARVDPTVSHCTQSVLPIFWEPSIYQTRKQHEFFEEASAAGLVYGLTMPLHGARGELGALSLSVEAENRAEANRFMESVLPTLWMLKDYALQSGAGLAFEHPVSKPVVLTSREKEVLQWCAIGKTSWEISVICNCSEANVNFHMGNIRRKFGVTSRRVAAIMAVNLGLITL
# experimental protocol: Induction of lasR-mediated quorum sensing in Pseudomonas aeruginosa PAKR02 harboring lasB::luxCDABE gene assessed as lasR-induction ratio at 10^-4 M after 24 hrs by bioluminescence assay relative to control
Task for the reader: assign each of the following compounds its reported Ratio.
Answers are plain numbers.

Recorded results for 5 compounds are shown here.
1) CCCCCCCCCNC(=O)CC(=O)N[C@H]1CCOC1=O: 1.01
2) CCCCCCCCNS(=O)(=O)CC(=O)N[C@H]1CCOC1=O: 1.02
3) CCCCCCCCCS(=O)(=O)CC(=O)N[C@H]1CCOC1=O: 0.92
4) CCCCCCCCNC(=O)CC(=O)N[C@@H]1CCCC[C@@H]1O: 0.92
5) CCCCCCCCNC(=O)C(F)C(=O)N[C@H]1CCOC1=O (some centres not stated): 0.91

# map each compound to its Ratio
1. CCCCCCCCNC(=O)CC(=O)Nc1nccs1
2. CCCCCCCCNC(=O)CC(=O)Nc1ccccn1

*A*
1. 0.9
2. 0.91

---

# tested on: Transcriptional activator protein LasR (Pseudomonas aeruginosa (strain ATCC 15692 / PAO1 / 1C / PRS 101 / LMG12228)) (UniProt P25084)
# experimental protocol: Induction of lasR-mediated quorum sensing in Pseudomonas aeruginosa PAKR02 harboring lasB::luxCDABE gene assessed as lasR-induction ratio at 10^-4 M after 24 hrs by bioluminescence assay relative to control
Assign class by Ratio: not lower than 0.9 means Yes; lower than 0.9 means No.

1. CCCCOCCCNC(=O)CC(=O)N[C@H]1CCOC1=O: Yes
2. CCCCCCCCNC(=O)CC(=O)Nc1ccccc1C(N)=O: No
3. CCCCCCCCOC(=O)CC(=O)N[C@H]1CCOC1=O: Yes
4. CCCCCCCCCC(=O)CC(=O)Nc1nccs1: No

Okay, next one:
*Q* Kindly determine if Ratio recorded for CCCCCCCCN(CCC)C(=O)CC(=O)N[C@H]1CCOC1=O is above or exactly 0.9.
*A* Yes

---

# tested on: Transcriptional activator protein LasR (Pseudomonas aeruginosa (strain ATCC 15692 / PAO1 / 1C / PRS 101 / LMG12228)) (UniProt P25084)
# Sequence (whole entry): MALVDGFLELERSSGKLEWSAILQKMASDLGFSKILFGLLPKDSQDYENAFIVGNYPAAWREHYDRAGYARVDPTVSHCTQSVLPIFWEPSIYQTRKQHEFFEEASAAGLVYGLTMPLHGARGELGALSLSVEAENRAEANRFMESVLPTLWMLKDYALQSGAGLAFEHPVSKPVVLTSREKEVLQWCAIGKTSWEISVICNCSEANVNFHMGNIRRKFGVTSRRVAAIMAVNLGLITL
# experimental protocol: Induction of lasR-mediated quorum sensing in Pseudomonas aeruginosa PAKR02 harboring lasB::luxCDABE gene assessed as lasR-induction ratio at 10^-4 M after 24 hrs by bioluminescence assay relative to control
Task for the reader: assign each of the following compounds its reported Ratio.
Give bare numbers.

1. CCCCCCCCCSCC(=O)N[C@H]1CCOC1=O: 0.9

# map each compound to its Ratio
1. CCCCCCCCCCCS(=O)(=O)CC(=O)N[C@H]1CCOC1=O
2. CCCCCCCCNC(=O)CC(=O)Nc1cccc(C(N)=O)c1
3. CCCCCCCCNC(=O)CC(=O)Nc1ccc2[nH]ncc2c1
4. CCCCCCCCCC(=O)CC(=O)N[C@H]1CC(=O)NC1=O
5. CCCCCCCCCN(O)CC(=O)N[C@H]1CCOC1=O

*A*
[0.75, 0.81, 1.1, 1.04, 0.99]

# map each compound to its Ratio
1. CCCCCCCCCC(=O)CC(=O)N[C@H]1CCOC1=O
2. CCCCCCCCNC(=O)CC(=O)Nc1ccccc1C(=O)N(C)C
3. CCCCCCCCNC(=O)CC(=O)N[C@H]1CCOC1=O

*A*
[12.3, 0.91, 1.06]

# map each compound to its Ratio
1. CCCCCCCCN(CCO)C(=O)CC(=O)N[C@H]1CCOC1=O
2. CCCCCCCCNC(=O)CC(=O)Nc1ccccc1O
3. CCCCOCCCNC(=O)CC(=O)N[C@@H]1CCC[C@@H]1O
4. CCCCCCCCCCC[S+]([O-])CC(=O)N[C@H]1CCOC1=O (stereo partly drawn)

*A*
1: 1.01; 2: 0.79; 3: 0.94; 4: 0.77
